test: Toxicity against mouse; type: organism-based; settings: in vivo
Can you tell me LD50 for the items I'm about to list?

{"compound": "Oc1c(Br)c(Br)cc2c1Oc1cc(Br)cc(Br)c1O2 [SPONGIADIOXIN B]", "LD50": "> 150 mg/kg"}

[in] For the compound Oc1cc(Br)c(Br)c2c1Oc1cc(Br)cc(Br)c1O2 [SPONGIADIOXIN A] , what LD50 is on record?
[out] > 150 mg/kg
